// data source = the EternaBench riboswitch data

Test system: MS2 coat protein
Experiment Summary: apparent Kd, MS2 coat protein; higher = weaker binding; RNA-MaP array; FMN 200 µM where present
Study Conditions: designed as: OFF switch for flavin mononucleotide; no ligand
Outcome: yes (1) for apparent Kd of at least 0.02 µM; no (0) for anything lower.

See these solved cases before continuing.
| Entry Sequence | Answer Label |
| --- | --- |
| GAACUGAAGCAUAGCUUUAGUCGUACAUGAGGAUCACCCAUGUAGGAUAUAGUAGGCAUAGCUUACUAGAAGGAUAGAGUGAUC | yes (1) |
| UCACACCACGUUAGGAUAUCGCUGGACAAAACUGGCGAGAAGGAACAUGAGGAUCACCCAUGUGACUUCAAGGU | no (0) |
| GAUUAACAUGAGGAUCACCCAUGUGAGGAUAUGAACUUGCCCACUUUCCCUUUAGAGUUUAGAAGGCGCAUUCU | yes (1) |
| AAGGAUAGAGGAUAUACAUAGAUACAGAUUCAUGUAGACCUACAUGAGGAUCACCCAUGUAGAAGGCUAUCCUA | no (0) |
| UUUGUUUGCGGAGGAUAUAUAAGUGGAUCACCCAUAGAAGGCCGACAUGAGGAUCACCCAUGUUAGACAUGAGGAUCACCCAUG | yes (1) |

Asked: Quick check, apparent Kd >= 0.02 µM? `CGUGCUUAUGUAGGAUAUGGUUAUCUAUGUCUAGUUACUAGACAUAGAUAACCAGAAGGACAUGAGGAUCACCCAUGUUGCACG`
Given back: no (0)

Asked: Quick check, apparent Kd >= 0.02 µM? `AAAAUGUGAGGAUAUCCGAAGGCGUCUGAUAGACGAGGCUAGGAGAAGGCACAUGAGGAUCACCCAUGUAAAAA`
Given back: yes (1)

Asked: Quick check, apparent Kd >= 0.02 µM? `AAACUGCAGAAGAUAAUAAUGAAUACAUGAGGAUCACCCAUGUAGGAUAUCGUCAGGAAUACUGACGAGAAGGACAUACUGCAG`
Given back: no (0)

Asked: Quick check, apparent Kd >= 0.02 µM? `UAUGUAUUCGUAGGAUAUCCGUUAAAACCAUGUGGAGAAGGACGAACAUGAGGAUCACCCAUGUAUCAUGGUGUAGACAAUUUU`
Given back: yes (1)

Asked: Quick check, apparent Kd >= 0.02 µM? `ACAUGAUACUAGGAUAUCAGCAUACUUCAAUGUUGAGAAGGAGUAACAUGAGGAUCACCCAUGUAUCCAACAUG`
Given back: yes (1)

Asked: Quick check, apparent Kd >= 0.02 µM? `CGGUCUUGUAACUAUUUGUUUCACAUGAGGAUCACCCAUGUCAGAAGGAGGUACAUCUAUUAGACCUAGGAUAUGACGUGUAAG`
Given back: yes (1)

Asked: Quick check, apparent Kd >= 0.02 µM? `CCCGGCGUGACGCUACACCGAGAGCAGGAUAUUCCGCCGUGAUCUACAUGAGGAUCACCCAUGUGGAAGAAGGGCUACACAAAA`
Given back: no (0)
